meta.source: PubChem BioAssay AID2060349

- Tested on: 762968-020-R-J2-PDC spheroids viability
- ASSAY REMARKS: Anticancer human tumor 762968-020-R-J2-PDC patient-derived colon carcinoma cell line growth inhibition [TAK]
- STUDY CONDITIONS: second compound 30 µM; first compound 0.001 µM; hits give low values; spheroids with HUVEC and MSC

MOLECULE	viability, T/C (%)
CC(C)CC(NC(=O)C(Cc1ccccc1)NC(=O)c1cnccn1)B(O)O (centres undefined) + CC(C)NCC(C(=O)N1CCN(c2ncnc3c2C(C)CC3O)CC1)c1ccc(Cl)cc1	85.4
CC(C)CC(NC(=O)CNC(=O)c1cc(Cl)ccc1Cl)B1OC(=O)CC(CC(=O)O)(C(=O)O)O1 (centres undefined) + CC(C)NCC(C(=O)N1CCN(c2ncnc3c2C(C)CC3O)CC1)c1ccc(Cl)cc1	89.4
CC(C)n1nc(-c2ccc3oc(N)nc3c2)c2c(N)ncnc21 + CC(C)NCC(C(=O)N1CCN(c2ncnc3c2C(C)CC3O)CC1)c1ccc(Cl)cc1	84.2
COC1CC2CCC(C)C(O)(O2)C(=O)C(=O)N2CCCCC2C(=O)OC(C(C)CC2CCC(OCCO)C(OC)C2)CC(=O)C(C)C=C(C)C(O)C(OC)C(=O)C(C)CC(C)C=CC=CC=C1C (centres undefined) + CC(C)NCC(C(=O)N1CCN(c2ncnc3c2C(C)CC3O)CC1)c1ccc(Cl)cc1	89

----------
- Tested on: 762968-020-R-J2-PDC spheroids viability
- ASSAY REMARKS: Anticancer human tumor 762968-020-R-J2-PDC cell line growth inhibition [TAK]
- STUDY CONDITIONS: second compound 0.3 µM; first compound 1 µM; hits give low values; spheroids with HUVEC and MSC
The entries below are paired with their reported viability, T/C.

MOLECULE	RESULT UNITS	viability, T/C
COc1c(OCCCN2CCOCC2)ccc2c3n(c(=NC(=O)c4cnc(N)nc4)nc12)CCN3 + CC(C)NCC(C(=O)N1CCN(c2ncnc3c2C(C)CC3O)CC1)c1ccc(Cl)cc1	%	66.8
CCCS(=O)(=O)Nc1ccc(F)c(C(=O)c2c[nH]c3ncc(-c4ccc(Cl)cc4)cc23)c1F + CC(C)NCC(C(=O)N1CCN(c2ncnc3c2C(C)CC3O)CC1)c1ccc(Cl)cc1	%	95.2
CC(C)(C)c1nc(-c2cccc(NS(=O)(=O)c3c(F)cccc3F)c2F)c(-c2ccnc(N)n2)s1 + CC(C)NCC(C(=O)N1CCN(c2ncnc3c2C(C)CC3O)CC1)c1ccc(Cl)cc1	%	84.3
Cc1nc(NC(=O)N2CCCC2C(N)=O)sc1-c1ccnc(C(C)(C)C(F)(F)F)c1 (centres undefined) + CC(C)NCC(C(=O)N1CCN(c2ncnc3c2C(C)CC3O)CC1)c1ccc(Cl)cc1	%	92.5

----------
- Test system: 762968-020-R-J2-PDC spheroids viability
- ASSAY REMARKS: Anticancer human tumor 762968-020-R-J2-PDC cell line growth inhibition [TAK];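 also: spheroids exposed to drug for 7 days before readout; 100% = DMSO vehicle control wells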
- STUDY CONDITIONS: second compound 30 µM; first compound 0.00316 µM; hits give low values; spheroids with HUVEC and MSC

COMPOUND	SYSTEM	RESULT UNITS	viability, T/C
COC1CC2CCC(C)C(O)(O2)C(=O)C(=O)N2CCCCC2C(=O)OC(C(C)CC2CCC(OCCO)C(OC)C2)CC(=O)C(C)C=C(C)C(O)C(OC)C(=O)C(C)CC(C)C=CC=CC=C1C (stereo not given) + CC(C)NCC(C(=O)N1CCN(c2ncnc3c2C(C)CC3O)CC1)c1ccc(Cl)cc1	762968-020-R-J2-PDC spheroids viability	%	92.3
CC(C)CC(NC(=O)CNC(=O)c1cc(Cl)ccc1Cl)B1OC(=O)CC(CC(=O)O)(C(=O)O)O1 (stereo not given) + CC(C)NCC(C(=O)N1CCN(c2ncnc3c2C(C)CC3O)CC1)c1ccc(Cl)cc1	762968-020-R-J2-PDC spheroids viability	%	89.4
CC(C)CC(NC(=O)C(Cc1ccccc1)NC(=O)c1cnccn1)B(O)O (stereo not given) + CC(C)NCC(C(=O)N1CCN(c2ncnc3c2C(C)CC3O)CC1)c1ccc(Cl)cc1	762968-020-R-J2-PDC spheroids viability	%	95.3
COc1c(OCCCN2CCOCC2)ccc2c3n(c(=NC(=O)c4cnc(N)nc4)nc12)CCN3 + CC(C)NCC(C(=O)N1CCN(c2ncnc3c2C(C)CC3O)CC1)c1ccc(Cl)cc1	762968-020-R-J2-PDC spheroids viability	%	91.8
CC(C)n1nc(-c2ccc3oc(N)nc3c2)c2c(N)ncnc21 + CC(C)NCC(C(=O)N1CCN(c2ncnc3c2C(C)CC3O)CC1)c1ccc(Cl)cc1	762968-020-R-J2-PDC spheroids viability	%	84.3

----------
Known viability, T/C of a selection of compounds
- System: 762968-020-R-J2-PDC spheroids viability
- ASSAY REMARKS: Anticancer human tumor 762968-020-R-J2-PDC cell line growth inhibition [TAK];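 also: spheroids exposed to drug for 7 days before readout; 100% = DMSO vehicle control wells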
- STUDY CONDITIONS: second compound 0.949 µM; first compound 0.316 µM; hits give low values; spheroids with HUVEC and MSC

COMPOUND	viability, T/C [%]
CCCS(=O)(=O)Nc1ccc(F)c(C(=O)c2c[nH]c3ncc(-c4ccc(Cl)cc4)cc23)c1F + CC(C)NCC(C(=O)N1CCN(c2ncnc3c2C(C)CC3O)CC1)c1ccc(Cl)cc1	89.9
COc1c(OCCCN2CCOCC2)ccc2c3n(c(=NC(=O)c4cnc(N)nc4)nc12)CCN3 + CC(C)NCC(C(=O)N1CCN(c2ncnc3c2C(C)CC3O)CC1)c1ccc(Cl)cc1	71.3
CC(C)(C)c1nc(-c2cccc(NS(=O)(=O)c3c(F)cccc3F)c2F)c(-c2ccnc(N)n2)s1 + CC(C)NCC(C(=O)N1CCN(c2ncnc3c2C(C)CC3O)CC1)c1ccc(Cl)cc1	84.6
Cc1nc(NC(=O)N2CCCC2C(N)=O)sc1-c1ccnc(C(C)(C)C(F)(F)F)c1 (centres undefined) + CC(C)NCC(C(=O)N1CCN(c2ncnc3c2C(C)CC3O)CC1)c1ccc(Cl)cc1	97.2

----------
- Tested on: 762968-020-R-J2-PDC spheroids viability
- ASSAY REMARKS: Anticancer human tumor 762968-020-R-J2-PDC cell line growth inhibition [TAK];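 also: spheroids exposed to drug for 7 days before readout; 100% = DMSO vehicle control wells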
- STUDY CONDITIONS: second compound 0.3 µM; first compound 0.01 µM; hits give low values; spheroids with HUVEC and MSC
Listed next: entries and their corresponding viability, T/C.

MOLECULE	RESULT UNITS	viability, T/C
COC1CC2CCC(C)C(O)(O2)C(=O)C(=O)N2CCCCC2C(=O)OC(C(C)CC2CCC(OCCO)C(OC)C2)CC(=O)C(C)C=C(C)C(O)C(OC)C(=O)C(C)CC(C)C=CC=CC=C1C (stereo not given) + CC(C)NCC(C(=O)N1CCN(c2ncnc3c2C(C)CC3O)CC1)c1ccc(Cl)cc1	%	103
CC(C)CC(NC(=O)CNC(=O)c1cc(Cl)ccc1Cl)B1OC(=O)CC(CC(=O)O)(C(=O)O)O1 (stereo not given) + CC(C)NCC(C(=O)N1CCN(c2ncnc3c2C(C)CC3O)CC1)c1ccc(Cl)cc1	%	108
CC(C)n1nc(-c2ccc3oc(N)nc3c2)c2c(N)ncnc21 + CC(C)NCC(C(=O)N1CCN(c2ncnc3c2C(C)CC3O)CC1)c1ccc(Cl)cc1	%	91.8
CC(C)CC(NC(=O)C(Cc1ccccc1)NC(=O)c1cnccn1)B(O)O (stereo not given) + CC(C)NCC(C(=O)N1CCN(c2ncnc3c2C(C)CC3O)CC1)c1ccc(Cl)cc1	%	98.1
COc1c(OCCCN2CCOCC2)ccc2c3n(c(=NC(=O)c4cnc(N)nc4)nc12)CCN3 + CC(C)NCC(C(=O)N1CCN(c2ncnc3c2C(C)CC3O)CC1)c1ccc(Cl)cc1	%	101

----------
- Test system: 762968-020-R-J2-PDC spheroids viability
- ASSAY REMARKS: Anticancer human tumor 762968-020-R-J2-PDC cell line growth inhibition [TAK];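 also: spheroids exposed to drug for 7 days before readout; 100% = DMSO vehicle control wells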
- STUDY CONDITIONS: second compound 9.49 µM; first compound 0.000316 µM; hits give low values; spheroids with HUVEC and MSC
viability, T/C listing for selected molecules.

MOLECULE	viability, T/C, %
CC(C)CC(NC(=O)C(Cc1ccccc1)NC(=O)c1cnccn1)B(O)O (centres undefined) + CC(C)NCC(C(=O)N1CCN(c2ncnc3c2C(C)CC3O)CC1)c1ccc(Cl)cc1	99.3
COC1CC2CCC(C)C(O)(O2)C(=O)C(=O)N2CCCCC2C(=O)OC(C(C)CC2CCC(OCCO)C(OC)C2)CC(=O)C(C)C=C(C)C(O)C(OC)C(=O)C(C)CC(C)C=CC=CC=C1C (centres undefined) + CC(C)NCC(C(=O)N1CCN(c2ncnc3c2C(C)CC3O)CC1)c1ccc(Cl)cc1	104
CC(C)CC(NC(=O)CNC(=O)c1cc(Cl)ccc1Cl)B1OC(=O)CC(CC(=O)O)(C(=O)O)O1 (centres undefined) + CC(C)NCC(C(=O)N1CCN(c2ncnc3c2C(C)CC3O)CC1)c1ccc(Cl)cc1	94
CC(C)n1nc(-c2ccc3oc(N)nc3c2)c2c(N)ncnc21 + CC(C)NCC(C(=O)N1CCN(c2ncnc3c2C(C)CC3O)CC1)c1ccc(Cl)cc1	94.4
